target: T1, Cyno CD47 ECD protein, His-tagged, monomer (cyno); assay: ProteOn SPR; cyno KD / human KD
T1 construct: extracellular domain; also called cynomolgus CD47
// reported KD Ratio Cyno/Human for each item listed
Output spec: single numeric token, no unit.

Completed entries (count: 4):
• C47B225 (antibody, V domains shown, human IgG2sigma/kappa) VH: EVQLVQSGAEVKKPGESLKISCKGSGYSFDDYWIGWVRQMPGKGLEWMGIIYPGDSDTRYSPSFQGQVTISADKSISTAYLQWSSLKASDTAVYYCARVGRFASHQLDYWGQGTLVTVSS VL: EIVLTQSPATLSLSPGERATLSCRASQSVNKALAWYQQKPGQAPRLLIYGASNRATGIPARFSGSGSGTDFTLTISSLEPEDFAVYYCQQGKGWPFTFGQGTKVEIK = 1.1
• C47B232 (antibody, V domains shown, human IgG2sigma/kappa) VH: EVQLVQSGAEVKKPGESLKISCKGSGYSFTNYWIGWVRQMPGKGLEWMGIIYPGDSDTRYSPSFQGQVTISADKSISTAYLQWSSLKASDTAVYYCARVGRFASHQLDYWGQGTLVTVSS VL: EIVLTQSPATLSLSPGERATLSCRASQSVNNRLAWYQQKPGQAPRLLIHWASTRAIGIPARFSGSGSGTDFTLTISSLEPEDFAVYYCQQGASWPFTFGQGTKVEIK = 0.9
• C47B236 (antibody, V domains shown, human IgG2sigma/kappa) VH: EVQLVQSGAEVKKPGESLKISCKGSGYSFKDDWIGWVRQMPGKGLEWMGIIYPGDSDTRYSPSFQGQVTISADKSISTAYLQWSSLKASDTAVYYCARVGRFASHQLDYWGQGTLVTVSS VL: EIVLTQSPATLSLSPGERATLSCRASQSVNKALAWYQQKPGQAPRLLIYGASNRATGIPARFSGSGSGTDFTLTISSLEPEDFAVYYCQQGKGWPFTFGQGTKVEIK = 5
• C47B233 (antibody, V domains shown, human IgG2sigma/kappa) VH: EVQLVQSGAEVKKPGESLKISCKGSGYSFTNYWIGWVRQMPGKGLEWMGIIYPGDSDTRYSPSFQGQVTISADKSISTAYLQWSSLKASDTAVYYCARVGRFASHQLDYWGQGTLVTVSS VL: EIVLTQSPATLSLSPGERATLSCRASQSVGSRLAWYQQKPGQAPRLLIYWASTRATGIPARFSGSGSGTDFTLTISSLEPEDFAVYYCQQGAYWPFTFGQGTKVEIK = 0.8

Quick one: KD Ratio Cyno/Human of C47B221 (antibody, V domains shown, human IgG2sigma/kappa) VH: EVQLVQSGAEVKKPGESLKISCKGSGYSFTDYWIGWVRQMPGKGLEWMGIIYPGDSDTRYSPSFQGQVTISADKSISTAYLQWSSLKASDTAVYYCARVGRFASHQLDYWGQGTLVTVSS VL: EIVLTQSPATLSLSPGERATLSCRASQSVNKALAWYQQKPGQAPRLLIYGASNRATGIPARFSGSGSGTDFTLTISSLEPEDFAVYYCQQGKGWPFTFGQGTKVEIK ?
0.9
